Reference source: patent US20200308301A1

Study Target: NOV1401
Sequence (VL, as listed by the source): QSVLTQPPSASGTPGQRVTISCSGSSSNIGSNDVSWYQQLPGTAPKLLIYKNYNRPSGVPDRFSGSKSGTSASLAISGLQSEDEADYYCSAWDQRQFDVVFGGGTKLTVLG
Protocol Summary: cell-based or functional assay
Decide by aPTT percentage reversal, NOV1401/anti NOV1401 ratio 1/3 (n/n): equal to or exceeding 40% means YES, less means NO.

*Q* Decide: aPTT percentage reversal, NOV1401/anti NOV1401 ratio 1/3 (n/n) of IDT12 (antibody, human IgG1, kappa, V domains shown, also called anti-NOV1401 IgG IDT12; full length IgG format for IDT2) VH: QVQLVESGGGLVKPGGSLRLSCAASGFTFSSAAVHWVRQAPGKGLEWVGRIKSKADGGTTDYAAPVKGRFTISRDDSKNTLYLQMNSLKTEDTAVYYCARDSPSISSYSIPYFSGMDVWGQGTLVTVSS VL: DIQMTQSPSSLSASVGDRVTITCRASQGIRAWLNWYQQKPGKAPKLLIYAASSLQSGVPSRFSGSGSGTDFTLTISSLQPEDFATYYCHQYITHPPTFGQGTKVEIKR >= 40%?
*A* YES

*Q* Decide: aPTT percentage reversal, NOV1401/anti NOV1401 ratio 1/3 (n/n) of IDT7 (Fab, V domains shown, Fab; also called anti-NOV1401 Fab IDT7) VH: QVQLVESGGGLVKPGGSLRLSCAASGFTFSSNAMHWVRQAPGKGLEWVGRIKSKTDGGTTDYAAPVKGRFTISRDDSKNTLYLQMNSLKTEDTAVYYCARDHYYYPFAYWGQGTLVTVSS VL: DIQMTQSPSSLSASVGDRVTITCRASQSIRYNLAWYQQKPGKAPKLLIYAASSLQSGVPSRFSGSGSGTDFTLTISSLQPEDFATYYCHQYIAKPITFGQGTKVEIKR >= 40%?
*A* NO

*Q* Decide: aPTT percentage reversal, NOV1401/anti NOV1401 ratio 1/3 (n/n) of IDT5 (Fab, V domains shown, Fab; also called anti-NOV1401 Fab IDT5) VH: QVQLVESGGGLVKPGGSLRLSCAASGFTFSSAAVHWVRQAPGKGLEWVGRIKSKADAGTTDYAAPVKGRFTISRDDSKNTLYLQMNSLKTEDTAVYYCARDSPSISSYSIPYFSGMDVWGQGTLVTVSS VL: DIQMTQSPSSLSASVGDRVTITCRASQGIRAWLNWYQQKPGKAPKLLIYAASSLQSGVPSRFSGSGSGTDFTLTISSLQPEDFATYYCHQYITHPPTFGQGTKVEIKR >= 40%?
*A* YES

*Q* Decide: aPTT percentage reversal, NOV1401/anti NOV1401 ratio 1/3 (n/n) of IDT2 (Fab, V domains shown, Fab; also called anti-NOV1401 Fab IDT2) VH: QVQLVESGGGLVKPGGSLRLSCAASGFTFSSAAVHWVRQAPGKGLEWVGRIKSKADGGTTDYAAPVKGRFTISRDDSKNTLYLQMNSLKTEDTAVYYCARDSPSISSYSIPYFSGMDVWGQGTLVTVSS VL: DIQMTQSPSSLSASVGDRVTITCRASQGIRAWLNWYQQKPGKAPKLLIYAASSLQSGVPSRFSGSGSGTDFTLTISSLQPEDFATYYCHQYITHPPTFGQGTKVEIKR >= 40%?
*A* YES

*Q* Decide: aPTT percentage reversal, NOV1401/anti NOV1401 ratio 1/3 (n/n) of IDT6 (Fab, V domains shown, Fab with a lambda light chain; also called anti-NOV1401 Fab IDT6) VH: QVQLVQSGAEVKKPGESLKISCKGSGYSFTNYWIGWVRQMPGKGLEWMGIIFPGVSYTKYSPSFQGQVTISADKSISTAYLQWSSLKASDTAMYYCARGSDQTLRGSRAMDYWGQGTLVTVSS VL: QSALTQPASVSGSPGQSITISCTGTSSDVGISNYVSWYQQHPGKAPKLMIYEVSNRPSGVSNRFSGSKSGNTASLTISGLQAEDEADYYCQSYTSLNYVFGGGTKLTVLG >= 40%?
*A* NO

*Q* Decide: aPTT percentage reversal, NOV1401/anti NOV1401 ratio 1/3 (n/n) of IDT4 (Fab, V domains shown, Fab; also called anti-NOV1401 Fab IDT4) VH: QVQLVESGGGLVKPGGSLRLSCAASGFTFSSAAVHWVRQAPGKGLEWVGRIKSKASGGTTDYAAPVKGRFTISRDDSKNTLYLQMNSLKTEDTAVYYCARDSPSISSYSIPYFSGMDVWGQGTLVTVSS VL: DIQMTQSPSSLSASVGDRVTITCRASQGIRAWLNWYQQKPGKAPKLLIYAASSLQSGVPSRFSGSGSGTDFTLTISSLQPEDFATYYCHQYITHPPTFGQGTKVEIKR >= 40%?
*A* NO

*Q* Decide: aPTT percentage reversal, NOV1401/anti NOV1401 ratio 1/3 (n/n) of IDT10 (Fab, V domains shown, Fab; also called anti-NOV1401 Fab IDT10) VH: QVQLVQSGAEVKKPGASVKVSCKASGYTFTNYYVHWVRQAPGQGLEWMGWINPYSGNTNYAQKFQGRVTMTRDTSISTAYMELSRLRSEDTAVYYCARGASSIRMSYYLDVWGQGTLVTVSS VL: DIQMTQSPSSLSASVGDRVTITCRASQSISNYLNWYQQKPGKAPKLLIYAASNLQSGVPSRFSGSGSGTDFTLTISSLQPEDFATYYCFQYTHSPATFGQGTKVEIKR >= 40%?
*A* NO

*Q* Decide: aPTT percentage reversal, NOV1401/anti NOV1401 ratio 1/3 (n/n) of IDT1 (Fab, V domains shown, Fab (heavy chain is VH-CH1); also called anti-NOV1401 Fab IDT1) VH: QVQLLESGGGLVQPGGSLRLSCAASGFTFSDYAMSWVRQAPGKGLEWVSVIDYSSSNTYYADSVKGRFTISRDNSKNTLYLQMNSLRAEDTAVYYCAREGYSYRSIRFDYWGQGTLVTVSS VL: DIQMTQSPSSLSASVGDRVTITCRASQSISSNLNWYQQKPGKAPKLLIYAASNLQSGVPSRFSGSGSGTDFTLTISSLQPEDFATYYCLQFDHTPFTFGQGTKVEIKR >= 40%?
*A* YES

*Q* Decide: aPTT percentage reversal, NOV1401/anti NOV1401 ratio 1/3 (n/n) of IDT9 (Fab, V domains shown, Fab; also called anti-NOV1401 Fab IDT9) VH: QVQLVQSGAEVKKPGASVKVSCKASGYTFTNYYVHWVRQAPGQGLEWMGWINPYNGNTNYAQKFQGRVTMTRDTSISTAYMELSRLRSEDTAVYYCARGASSIRMSYYLDVWGQGTLVTVSS VL: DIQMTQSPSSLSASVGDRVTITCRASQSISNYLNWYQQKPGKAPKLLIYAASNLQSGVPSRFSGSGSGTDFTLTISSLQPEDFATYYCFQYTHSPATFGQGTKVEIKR >= 40%?
*A* NO

*Q* Decide: aPTT percentage reversal, NOV1401/anti NOV1401 ratio 1/3 (n/n) of IDT3 (Fab, V domains shown, Fab; also called anti-NOV1401 Fab IDT3) VH: QVQLVESGGGLVKPGGSLRLSCAASGFTFQSAAVHWVRQAPGKGLEWVGRIKSKADGGTTDYAAPVKGRFTISRDDSKNTLYLQMNSLKTEDTAVYYCARDSPSISSYSIPYFSGMDVWGQGTLVTVSS VL: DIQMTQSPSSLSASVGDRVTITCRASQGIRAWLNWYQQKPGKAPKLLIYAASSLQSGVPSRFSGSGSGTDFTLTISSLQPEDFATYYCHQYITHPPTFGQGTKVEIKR >= 40%?
*A* NO

*Q* Decide: aPTT percentage reversal, NOV1401/anti NOV1401 ratio 1/3 (n/n) of IDT8 (Fab, V domains shown, Fab; also called anti-NOV1401 Fab IDT8) VH: QVQLVESGGGLVKPGGSLRLSCAASGFTFSSNAMHWVRQAPGKGLEWVGRIKSKTSGGTTDYAAPVKGRFTISRDDSKNTLYLQMNSLKTEDTAVYYCARDHYYYPFAYWGQGTLVTVSS VL: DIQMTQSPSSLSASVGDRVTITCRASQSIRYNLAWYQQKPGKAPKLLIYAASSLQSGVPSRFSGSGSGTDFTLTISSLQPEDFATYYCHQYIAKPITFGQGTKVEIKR >= 40%?
*A* NO
